Tested on: HCT116 MTAP null cells
TEST PROTOCOL: HCT116 proliferation assay, MTAP null cells (CellTiter-Glo, 6 days)
Type: cell-based
MEASUREMENT PARAMETERS: HCT116-MTAP null, 144 h, read-out: Protif_ HCT116-MTAP null IC50
Parameter IC50: see the listing below.
PROPERTY MEASURED: IC50 (nM)

>>> readout_number("Cc1cc2cc(C(=O)N(Cc3ccc(C(F)(F)F)cn3)CC3CC3)c(F)cc2nc1N [Example 311]")
163
>>> readout_number("Cc1cc2cc(C(=O)N(Cc3ccc(C(F)(F)F)cn3)[C@H](C)c3ncn(C)n3)c(F)cc2nc1N (single isomer, unassigned) [Example 497]")
35
>>> readout_number("Cc1cc2cc(C(=O)N(CC(C)C)[C@H](C)c3ccc(C(F)(F)F)cn3)ccc2nc1N (single isomer, unassigned) [Example 472]")
889
>>> readout_number("C[C@H](c1ncccc1F)N(Cc1ccc(C(F)(F)F)cn1)C(=O)c1cnc2nc(N)c(Br)cc2c1 [Example 388]")
137
>>> readout_number("Cc1cc2cc(C(=O)N(Cc3ccc(C(F)(F)F)cn3)CC(C)C)c(Cl)cc2nc1N [Example 436]")
198
>>> readout_number("COC(CN(Cc1ccc(C(F)(F)F)cn1)C(=O)c1ccc2nc(N)c(C)cc2c1)C(C)C (stereo not drawn) [Example 613]")
269
>>> readout_number("Cc1cc2cc(C(=O)N(Cc3ccc(C(F)(F)F)cn3)[C@@H]3CCCN(C4CC4)C3=O)ccc2nc1N (single isomer, unassigned) [Example 462]")
349
>>> readout_number("Cc1cc2cc(C(=O)N(Cc3ccc(C(F)(F)F)cn3)[C@@H]3CCCc4cn[nH]c43)ccc2nc1N (single isomer, unassigned) [Example 527]")
10
>>> readout_number("Cc1cc2cc(C(=O)N(Cc3cnc4[nH]ccc4c3)Cc3ccc(C(F)(F)F)cn3)ccc2nc1N [Example 598]")
180
>>> readout_number("Cc1cc2cc(C(=O)N(Cc3ccc(C(F)(F)F)cn3)Cc3ncccc3F)c(F)cc2nc1N [Example 310]")
67
>>> readout_number("CC1CCCC1N(Cc1ccc(C(F)(F)F)cn1)C(=O)c1ccc2nc(N)c(Br)cc2c1 (stereo not drawn) [Example 831]")
440
>>> readout_number("Cc1cc2nc(N)c(C)cc2cc1C(=O)N(Cc1ccc(C(F)(F)F)cn1)CC(C)C [Example 539]")
328
>>> readout_number("Cc1cc2cc(C(=O)N(Cc3ccc(C(F)(F)F)cc3)Cc3ncccc3F)ccc2nc1N [Example 328]")
178
>>> readout_number("Cc1cc2cc(C(=O)N(Cc3ccc(C4=CCCOC4)cn3)[C@H](C)c3ncccn3)ccc2nc1N [Example 558]")
38
>>> readout_number("Cc1cc2cc(C(=O)N(Cc3ccc(C(F)(F)F)cn3)C3CCCC3C#N)ccc2nc1N (stereo not drawn) [Example 699]")
50
